Reported cytotoxicity at 70.5 h is given for each of the following compounds.
protocol.description: Human HepG2 cell viability assay in 384 well format
Type: toxicity, cell-based
Design: dose 125 nL, time 70.5 hour; concentration not given beside the values
experimental.context: HepG2 cells, read-out: Inhibition

compound | measured.parameter | experimental.value
Cn1cc(CN2CCc3ncnc(N4CCCC4)c3CC2)cn1 | cytotoxicity at 70.5 h | -0.713%
CNC(=O)c1cccc(CCNS(C)(=O)=O)c1 | cytotoxicity at 70.5 h | -2.35%
CCN(CCCNC(=O)c1ccc(C)[nH]c1=O)S(C)(=O)=O | cytotoxicity at 70.5 h | -0.303%
CC(C)(C)OC(=O)NCCc1csc(N2CCCC2)n1 | cytotoxicity at 70.5 h | -3.27%
CCOC(CC)C(=O)NCc1ccnc(Oc2ccc(F)cc2)c1 (centres undefined) | cytotoxicity at 70.5 h | -7.99%

Exam item: # cytotoxicity at 70.5 h lookup, item O=C(NC1CCCC1)c1ccc(C2CCCNC2)nc1 (centres undefined)
Marked response: 9.52%

Exam item: # cytotoxicity at 70.5 h lookup, item Cc1cc(CN2Cc3ccccc3CC2c2nnc(C)o2)no1 (centres undefined)
Marked response: 1.64%

Exam item: # cytotoxicity at 70.5 h lookup, item Cc1cc(NC(=O)N2CCN(C)CC2C)n(C(C)(C)C)n1 (centres undefined)
Marked response: -9.8%

* * *

protocol.description: Human HepG2 cell viability assay in 384 well format
Type: toxicity, cell-based
Set-up: dose 125 nL, time 70.5 hour; concentration not given beside the values
experimental.context: HepG2 cells, read-out: Inhibition
measured.parameter: cytotoxicity at 70.5 h (%)
Give a bare numeral; the unit % is implied.

compound | endpoint.unit | cytotoxicity at 70.5 h
COCCN1CCN(CC(=O)NC2(C#N)CCCC2)CC1 | % | -8.93
CC(C)NCc1cc2n(n1)CCN(C1CCCCC1)C2 | % | 9.14
COCC(=O)Nc1cnn(COc2ccc(F)cc2Cl)c1 | % | 2.16
CC(C)c1nc(C2CCCN(C(=O)CCc3cscn3)C2)no1 (centres undefined) | % | -2.82

Exam item: # cytotoxicity at 70.5 h lookup, item Cc1cc(N2CCN(c3ccc(=O)[nH]n3)CC2)nc(-c2ccncc2)n1
Marked response: -5.53

Exam item: # cytotoxicity at 70.5 h lookup, item CN(CC(=O)N(C)C)Cc1ccc(C#N)cc1F
Marked response: 11.5

Exam item: # cytotoxicity at 70.5 h lookup, item CC(C)(C)C(=O)NCCc1cc2nc(-c3ccncc3)ccn2n1
Marked response: 1.86

Exam item: # cytotoxicity at 70.5 h lookup, item Cc1noc([C@H]2C[C@H]3OCC[C@H]3N(C3CCC3)C2)n1
Marked response: 24.7

* * *

Reported cytotoxicity at 70.5 h is given for each of the following molecules.
protocol.description: Human HepG2 cell viability assay in 384 well format
Type: toxicity, cell-based
Set-up: dose 125 nL, time 70.5 hour; concentration not given beside the values
experimental.context: HepG2 cells, read-out: Inhibition
Give a bare numeral; the unit % is implied.

Here are 3 molecules together with their reported answers.
molecule | measured.parameter | experimental.value
CS(=O)(=O)c1cccc(OCC(=O)N2CCCC2c2ccccc2Cl)c1 (stereo not drawn) | cytotoxicity at 70.5 h | -2.69
CC(=O)N1CCN(C(C)c2ccc(Br)cc2)CC1 (stereo not drawn) | cytotoxicity at 70.5 h | -0.505
CC(CN1CCOCC1)OC(=O)c1ccccc1I (stereo not drawn) | cytotoxicity at 70.5 h | -15.6

Exam item: # cytotoxicity at 70.5 h lookup, item Cc1cccc(CN2CC[C@@H]3[C@@H]2CCN3C(=O)c2ccno2)n1
Marked response: -4.67

Exam item: # cytotoxicity at 70.5 h lookup, item Cc1nnc2n1CCN(C(=O)c1ccn(-c3cccc(F)c3)n1)C2
Marked response: 5.14

Exam item: # cytotoxicity at 70.5 h lookup, item Cc1cc(C(=O)NCC2OCCc3cn(CC4CC4)nc32)c(C)[nH]1 (stereo not drawn)
Marked response: -3.07

* * *

protocol.description: Human HepG2 cell viability assay in 384 well format
Assay type: toxicity, cell-based
Design: dose 125 nL, time 70.5 hour; concentration not given beside the values
experimental.context: HepG2 cells, read-out: Inhibition
measured.parameter: cytotoxicity at 70.5 h (%)
Give a bare numeral; the unit % is implied.

Here are 5 molecules together with their reported answers.
molecule | cytotoxicity at 70.5 h / %
CN(C)S(=O)(=O)c1ccc(OCCNCCn2cccn2)cc1 | 33.7
O=C(c1ccoc1)N(Cc1ccccn1)C1CC1 | -14.2
Cc1cc(C2CCCN2C(=O)COc2ccc(CC#N)cc2)on1 (stereo unspecified) | -9.16
O=C(O)CCc1cccc(C2CCCN2Cc2ccc(F)c(F)c2)n1 (stereo unspecified) | -6.64
CN(Cc1cnn(C)c1)S(=O)(=O)N1CCCC1c1ccco1 (stereo unspecified) | -0.954

API: the following record is the query input.
Exam item: # cytotoxicity at 70.5 h lookup, item Cc1cc(O)c(OCC(=O)Nc2nc3c(s2)CCCCC3)cn1
Marked response: -1.73

* * *

protocol.description: Human HepG2 cell viability assay in 384 well format
Type: toxicity, cell-based
Parameters: dose 125 nL, time 70.5 hour; concentration not given beside the values
experimental.context: HepG2 cells, read-out: Inhibition
measured.parameter: cytotoxicity at 70.5 h (%)
Give a bare numeral; the unit % is implied.

Here are 2 compounds together with their reported answers.
compound | cytotoxicity at 70.5 h [%]
Cc1noc2nc3c(c(C(=O)/N=c4\[nH]ncs4)c12)CCC3 | 25.6
FC(F)COc1ccccc1NCc1nnsc1Cl | -10.5

Exam item: # cytotoxicity at 70.5 h lookup, item O=C(Cc1ccc(F)cc1Cl)N1CC[C@H](CO)[C@@H](O)C1
Marked response: 9.17

* * *

Reported cytotoxicity at 70.5 h is given for each of the following compounds.
protocol.description: Human HepG2 cell viability assay in 384 well format
Assay type: toxicity, cell-based
Design: dose 125 nL, time 70.5 hour; concentration not given beside the values
experimental.context: HepG2 cells, read-out: Inhibition
Give a bare numeral; the unit % is implied.

compound | cytotoxicity at 70.5 h / %
COc1ccc(-c2noc(CN3CC(n4cccn4)C3)n2)c(OC)c1 | -7.32
CO[C@H]1CN(C(=O)c2cccc(C)n2)CC[C@@]12CCCO2 | -6.22
CCC1=N[C@@]2(CC[C@@H]3CN(S(=O)(=O)CC(C)C)C[C@@H]32)C(=O)N1CC1CC1 | 0.026
CC1CN(C(=O)Nc2cc(C(F)(F)F)c[nH]c2=O)CC(C)(C)O1 (stereo not given) | -8.86

Exam item: # cytotoxicity at 70.5 h lookup, item CCN(CC1CCCN(CCc2cccc(OC)c2)C1)C(=O)CN(C)C (stereo not given)
Marked response: -0.489

* * *

protocol.description: Human HepG2 cell viability assay in 384 well format
Assay type: toxicity, cell-based
Design: dose 125 nL, time 70.5 hour; concentration not given beside the values
experimental.context: HepG2 cells, read-out: Inhibition
measured.parameter: cytotoxicity at 70.5 h (%)
Give a bare numeral; the unit % is implied.

Here are 3 compounds together with their reported answers.
compound | cytotoxicity at 70.5 h (%)
Cc1noc(C(C)N2CCN(c3ccc(C#N)cn3)CC2)n1 (stereo unspecified) | -10.1
CN(Cc1ccsc1)C(=O)c1ccc(F)c(NS(C)(=O)=O)c1 | -3.77
CCN1CCN(C[C@@H]2CN(c3ncccc3Cl)C[C@@H]2CO)CC1 | -3.91

Exam item: # cytotoxicity at 70.5 h lookup, item Cc1cc(NC(=O)C(C)Oc2ccc3c(c2)OCO3)no1 (stereo unspecified)
Marked response: -6.37

Exam item: # cytotoxicity at 70.5 h lookup, item CC(C)c1nc(N2CCC(N3CCCC(O)C3)CC2)c2cnn(C)c2n1 (stereo unspecified)
Marked response: 1.93

* * *

protocol.description: Human HepG2 cell viability assay in 384 well format
Assay type: toxicity, cell-based
Design: dose 125 nL, time 70.5 hour; concentration not given beside the values
experimental.context: HepG2 cells, read-out: Inhibition
Reported cytotoxicity at 70.5 h is given for each of the following compounds.
Give a bare numeral; the unit % is implied.

compound | cytotoxicity at 70.5 h / %
CC(C)Sc1ncccc1C(=O)NCc1ccc(CS(C)(=O)=O)cc1 | 6.05
Cc1nsc(NCCNS(=O)(=O)c2ccccc2)n1 | -1.39
O=C(c1n[nH]c2c1CCC2)N1CCCC1c1nc(-c2ccccn2)no1 (stereo unspecified) | -3.03

Exam item: # cytotoxicity at 70.5 h lookup, item Cc1ccc(C(=O)N(Cc2cccc(F)c2)C2CC2)c(=O)[nH]1
Marked response: -2.11

Exam item: # cytotoxicity at 70.5 h lookup, item CN(Cc1ccn[nH]1)C(=O)CCC(=O)NC1CCCC1
Marked response: -9.97

Exam item: # cytotoxicity at 70.5 h lookup, item Cc1nc2c(c(NCc3nc4ccccc4s3)n1)CCNCC2
Marked response: -4.98

Exam item: # cytotoxicity at 70.5 h lookup, item O=C(NCCc1cccs1)N1CCCC2(CCC(=O)N(C3CC3)C2)C1 (stereo unspecified)
Marked response: -0.67

Exam item: # cytotoxicity at 70.5 h lookup, item O=C(C(c1ccc(F)cc1)N1CCCCC1)N1CCn2cncc2C1 (stereo unspecified)
Marked response: -1.97

Exam item: # cytotoxicity at 70.5 h lookup, item O=C(c1ccc2[nH]nnc2c1)N1C[C@H](O)[C@]2(CCCO2)C1
Marked response: -1.24

Exam item: # cytotoxicity at 70.5 h lookup, item CC(C)NC(=O)C1c2c(ncn2C(C)C)CCN1Cc1ccccc1 (stereo unspecified)
Marked response: -3.52

Exam item: # cytotoxicity at 70.5 h lookup, item Cc1nc2cc(C3CCN(Cc4ccccc4F)C3)nn2c(O)c1C (stereo unspecified)
Marked response: -3.81
